Provenance of the data: the supplement of paper PMC7877785

# method_notes: self-splicing fitness, log relative to wild type (ln ratio); higher = more splicing; Tetrahymena group I intron in knt gene, E. coli kanamycin selection, DiMSum; sequences stand for … in CUCUCU…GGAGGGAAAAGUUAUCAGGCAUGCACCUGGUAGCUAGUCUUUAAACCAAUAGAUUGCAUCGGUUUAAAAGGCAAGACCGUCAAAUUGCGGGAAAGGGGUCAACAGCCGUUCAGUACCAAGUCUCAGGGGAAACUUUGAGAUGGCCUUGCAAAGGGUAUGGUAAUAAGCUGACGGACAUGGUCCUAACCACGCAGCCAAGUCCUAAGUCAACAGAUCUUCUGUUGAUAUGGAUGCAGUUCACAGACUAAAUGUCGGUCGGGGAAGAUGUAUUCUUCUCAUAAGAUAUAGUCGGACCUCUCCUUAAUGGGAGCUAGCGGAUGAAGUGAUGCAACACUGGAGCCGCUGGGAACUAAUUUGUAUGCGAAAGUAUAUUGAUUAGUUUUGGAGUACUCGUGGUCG;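 also: selection with 25 µg/mL kanamycin versus none on LB agar overnight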
# recorded_conditions: 37 °C
self-splicing fitness (ln) of -1 or higher: Satisfied. Under -1: Not satisfied.

# query_sequence, category
measured = [
    ("GCCCAGCAAUAUUACGGGAC", "Not satisfied"),
    ("GCUGAGCAAUAUUACGCCAA", "Not satisfied"),
    ("AUGGAGCAAUAUUACGUGAC", "Not satisfied"),
    ("CGGGAGCAAUAUUACGUGAG", "Satisfied"),
    ("UAAUAGCAAUAUUACGCCGU", "Not satisfied"),
    ("CGGAAGCAAUAUUACGCGUC", "Not satisfied"),
    ("GAAAAGCAAUAUUACGCUAU", "Satisfied"),
    ("AUGUAGCAAUAUUACGAACA", "Satisfied"),
    ("AAGCAGCAAUAUUACGUGGG", "Not satisfied"),
    ("GCCGAGCAAUAUUACGAAGU", "Not satisfied"),
    ("CGUCAGCAAUAUUACGACGC", "Not satisfied"),
    ("UGAAAGCAAUAUUACGACUG", "Satisfied"),
    ("CAAGAGCAAUAUUACGGCCG", "Satisfied"),
    ("GGCCAGCAAUAUUACGCAUA", "Satisfied"),
    ("CAUAAGCAAUAUUACGUUUG", "Not satisfied"),
    ("GGAUAGCAAUAUUACGACCG", "Not satisfied"),
    ("GAGGAGCAAUAUUACGCCUG", "Not satisfied"),
    ("UUCCAGCAAUAUUACGUAUU", "Not satisfied"),
    ("CCGUAGCAAUAUUACGAGUG", "Satisfied"),
    ("AGUUAGCAAUAUUACGCUUA", "Satisfied"),
    ("UACAAGCAAUAUUACGGGUU", "Not satisfied"),
    ("GAGUAGCAAUAUUACGUUCU", "Not satisfied"),
    ("GCAAAGCAAUAUUACGCCAU", "Not satisfied"),
    ("UGUCAGCAAUAUUACGACUA", "Satisfied"),
    ("AAUUAGCAAUAUUACGGUCA", "Satisfied"),
    ("GUGAAGCAAUAUUACGACAU", "Satisfied"),
    ("UUUCAGCAAUAUUACGAGUC", "Not satisfied"),
    ("GACGAGCAAUAUUACGGUUU", "Not satisfied"),
    ("AGGCAGCAAUAUUACGACCG", "Satisfied"),
    ("UGAUAGCAAUAUUACGCUUU", "Not satisfied"),
    ("AAAUAGCAAUAUUACGCAGG", "Not satisfied"),
    ("AGAGAGCAAUAUUACGUGAG", "Not satisfied"),
    ("CCGGAGCAAUAUUACGAUGA", "Not satisfied"),
    ("GCUGAGCAAUAUUACGUUGU", "Not satisfied"),
]

----------
# method_notes: self-splicing fitness, log relative to wild type (ln ratio); higher = more splicing; Tetrahymena group I intron in knt gene, E. coli kanamycin selection, DiMSum; sequences stand for … in CUCUCU…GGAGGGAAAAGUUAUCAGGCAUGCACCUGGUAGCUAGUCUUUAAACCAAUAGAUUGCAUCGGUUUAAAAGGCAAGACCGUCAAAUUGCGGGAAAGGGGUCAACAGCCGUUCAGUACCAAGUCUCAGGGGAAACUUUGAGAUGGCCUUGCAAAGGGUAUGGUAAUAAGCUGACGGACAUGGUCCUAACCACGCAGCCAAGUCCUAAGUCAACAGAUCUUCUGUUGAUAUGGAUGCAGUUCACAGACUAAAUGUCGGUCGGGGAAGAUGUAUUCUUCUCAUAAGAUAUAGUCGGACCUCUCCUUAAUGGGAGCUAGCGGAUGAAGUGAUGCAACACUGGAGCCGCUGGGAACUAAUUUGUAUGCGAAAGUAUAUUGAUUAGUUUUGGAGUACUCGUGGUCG
# recorded_conditions: 30 °C
self-splicing fitness (ln) of -3 or higher: 1 (yes). Under -3: 0 (no).

# query_sequence, category
records = [
    ("GGUAAGCAAUAUUACGUGCU", "1 (yes)"),
    ("CGCAAGCAAUAUUACGGUCU", "1 (yes)"),
    ("CAAGAGCAAUAUUACGCGCC", "0 (no)"),
    ("ACCCAGCAAUAUUACGCUAU", "1 (yes)"),
    ("GUAGAGCAAUAUUACGGUUG", "1 (yes)"),
    ("GUGAAGCAAUAUUACGAGUC", "1 (yes)"),
    ("UAGAAGCAAUAUUACGGCUU", "0 (no)"),
    ("GCUUAGCAAUAUUACGGGGG", "1 (yes)"),
]

----------
# method_notes: self-splicing fitness, log relative to wild type (ln ratio); higher = more splicing; Tetrahymena group I intron in knt gene, E. coli kanamycin selection, DiMSum; sequences stand for … in CUCUCU…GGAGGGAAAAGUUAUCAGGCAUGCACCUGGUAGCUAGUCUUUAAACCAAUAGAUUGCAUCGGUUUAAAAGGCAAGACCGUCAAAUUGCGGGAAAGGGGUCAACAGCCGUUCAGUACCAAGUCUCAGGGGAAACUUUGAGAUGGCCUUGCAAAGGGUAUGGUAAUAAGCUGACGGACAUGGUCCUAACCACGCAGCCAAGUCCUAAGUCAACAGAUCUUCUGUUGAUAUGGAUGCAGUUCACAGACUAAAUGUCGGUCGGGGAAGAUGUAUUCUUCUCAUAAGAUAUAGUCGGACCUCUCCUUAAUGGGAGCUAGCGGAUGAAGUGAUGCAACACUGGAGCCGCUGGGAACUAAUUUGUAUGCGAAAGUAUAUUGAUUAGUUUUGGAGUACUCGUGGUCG
# recorded_conditions: 30 °C
self-splicing fitness (ln) of -3 or higher: yes (1). Under -3: no (0).

# query_sequence, category
data = [
    ("UGAAAGCAAUAUUACGCGAU", "yes (1)"),
    ("ACGUAGCAAUAUUACGCCGG", "yes (1)"),
    ("AUUGAGCAAUAUUACGUUCG", "yes (1)"),
    ("AGCAAGCAAUAUUACGACGG", "yes (1)"),
    ("AAGCAGCAAUAUUACGGGAU", "no (0)"),
    ("UUCAAGCAAUAUUACGCAGG", "yes (1)"),
    ("GCUCAGCAAUAUUACGUUAG", "yes (1)"),
    ("GGGUAGCAAUAUUACGAAAU", "yes (1)"),
    ("CCUAAGCAAUAUUACGUGUC", "no (0)"),
    ("GACGAGCAAUAUUACGCAUA", "yes (1)"),
    ("CCCAAGCAAUAUUACGAUUG", "no (0)"),
    ("AAUAAGCAAUAUUACGAUAA", "yes (1)"),
    ("GGUAAGCAAUAUUACGGGGG", "no (0)"),
    ("ACACAGCAAUAUUACGAGGU", "yes (1)"),
    ("GUUAAGCAAUAUUACGGCCC", "yes (1)"),
    ("UAGGAGCAAUAUUACGCAUA", "yes (1)"),
]

----------
# method_notes: self-splicing fitness, log relative to wild type (ln ratio); higher = more splicing; Tetrahymena group I intron in knt gene, E. coli kanamycin selection, DiMSum; sequences stand for … in CUCUCU…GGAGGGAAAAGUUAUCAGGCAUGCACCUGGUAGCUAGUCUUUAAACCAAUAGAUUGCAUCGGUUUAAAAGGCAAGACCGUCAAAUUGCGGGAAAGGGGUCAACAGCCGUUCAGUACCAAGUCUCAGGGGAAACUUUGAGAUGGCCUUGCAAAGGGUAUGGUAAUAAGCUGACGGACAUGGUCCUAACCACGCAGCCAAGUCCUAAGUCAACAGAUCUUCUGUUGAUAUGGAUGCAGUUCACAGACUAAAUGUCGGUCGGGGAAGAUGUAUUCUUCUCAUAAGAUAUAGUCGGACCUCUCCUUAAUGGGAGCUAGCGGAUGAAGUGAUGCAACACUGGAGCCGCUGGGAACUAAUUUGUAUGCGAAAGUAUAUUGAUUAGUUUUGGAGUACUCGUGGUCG
# recorded_conditions: 30 °C
self-splicing fitness (ln) of -3 or higher: t. Under -3: f.

# query_sequence, category
measured = [
    ("CAUCAGCAAUAUUACGCAUG", "t"),
    ("CCGCAGCAAUAUUACGUGUC", "f"),
    ("UGUUAGCAAUAUUACGGCAA", "t"),
    ("CCUUAGCAAUAUUACGCUGC", "t"),
    ("AUUUAGCAAUAUUACGCUUC", "t"),
    ("CUCUAGCAAUAUUACGCGGU", "f"),
    ("GGCUAGCAAUAUUACGAGAC", "f"),
]
